# Tested on: Salmonella enterica
# TEST DETAILS: Antibacterial activity against Salmonella enterica 349812 assessed as inhibition of visible growth incubated for 16 to 18 hrs by CLSI method
# Type: functional
# CONDITION NOTES: time 16-18 hrs, read-out: MIC100
Each record here notes measured MIC.
REPORTED PROPERTY: MIC (µg/mL)

C=CCc1ccc(OCCC[N+](C)(C)CC(=O)NCCCCCC)c(-c2ccc(OCCC[N+](C)(C)CC(=O)NCCCCCC)c(CC=C)c2)c1.[Br-].[Br-]; 4
C=CCc1ccc(OCC[N+](C)(C)CC(=O)NCCCC)c(-c2ccc(OCC[N+](C)(C)CC(=O)NCCCC)c(CC=C)c2)c1.[Br-].[Br-]; 64
C=CCc1ccc(O)c(-c2cc(CC=C)ccc2OCC[N+](C)(C)CC(=O)NCCCC)c1.[Br-]; 32
C=CCc1ccc(O)c(-c2cc(CC=C)ccc2OCCCC[N+](C)(C)CC(=O)NCCCCCC)c1.[Br-]; 32
C=CCc1ccc(O)c(-c2cc(CC=C)ccc2OCCC[N+](C)(C)CC(=O)NCCCC)c1.[Br-]; 32
C=CCc1ccc(O)c(-c2cc(CC=C)ccc2OCC[N+](C)(C)CC(=O)NCCCCCC)c1.[Br-]; 64
C=CCc1ccc(OCCCC[N+](C)(C)CC(=O)NCC)c(-c2ccc(OCCCC[N+](C)(C)CC(=O)NCC)c(CC=C)c2)c1.[Br-].[Br-]; 8
C=CCc1ccc(O)c(-c2cc(CC=C)ccc2OCC[N+](C)(C)CC(=O)NCCCCC)c1.[Br-]; 64
C=CCc1ccc(O)c(-c2cc(CC=C)ccc2OCCC[N+](C)(C)CC(=O)N(CCCC)CCCC)c1.[Br-]; 8
C=CCc1ccc(OCCC[N+](C)(C)CC(=O)NCC)c(-c2ccc(OCCC[N+](C)(C)CC(=O)NCC)c(CC=C)c2)c1.[Br-].[Br-]; 64
C=CCc1ccc(O)c(-c2cc(CC=C)ccc2OCCC[N+](C)(C)CC(=O)NCCCCC)c1.[Br-]; 32
C=CCc1ccc(OCCCC[N+](C)(C)CC(=O)N(CCCC)CCCC)c(-c2ccc(OCCCC[N+](C)(C)CC(=O)N(CCCC)CCCC)c(CC=C)c2)c1.[Br-].[Br-]; 8
C=CCc1ccc(OCC[N+](C)(C)CC(=O)NCCCCCC)c(-c2ccc(OCC[N+](C)(C)CC(=O)NCCCCCC)c(CC=C)c2)c1.[Br-].[Br-]; 32
C=CCc1ccc(O)c(-c2cc(CC=C)ccc2OCCC[N+](C)(C)CC(=O)NCCCCCC)c1.[Br-]; 16
